ASSAY SYSTEM: T1, human LAP-TGFB1 Fc fusion (human)
T1 construct: also called human LAP-TGFβ1-Fc; human LAP-TGFβ-Fc isoform 1
T1 sequence (chain, as listed by the source limits assumed): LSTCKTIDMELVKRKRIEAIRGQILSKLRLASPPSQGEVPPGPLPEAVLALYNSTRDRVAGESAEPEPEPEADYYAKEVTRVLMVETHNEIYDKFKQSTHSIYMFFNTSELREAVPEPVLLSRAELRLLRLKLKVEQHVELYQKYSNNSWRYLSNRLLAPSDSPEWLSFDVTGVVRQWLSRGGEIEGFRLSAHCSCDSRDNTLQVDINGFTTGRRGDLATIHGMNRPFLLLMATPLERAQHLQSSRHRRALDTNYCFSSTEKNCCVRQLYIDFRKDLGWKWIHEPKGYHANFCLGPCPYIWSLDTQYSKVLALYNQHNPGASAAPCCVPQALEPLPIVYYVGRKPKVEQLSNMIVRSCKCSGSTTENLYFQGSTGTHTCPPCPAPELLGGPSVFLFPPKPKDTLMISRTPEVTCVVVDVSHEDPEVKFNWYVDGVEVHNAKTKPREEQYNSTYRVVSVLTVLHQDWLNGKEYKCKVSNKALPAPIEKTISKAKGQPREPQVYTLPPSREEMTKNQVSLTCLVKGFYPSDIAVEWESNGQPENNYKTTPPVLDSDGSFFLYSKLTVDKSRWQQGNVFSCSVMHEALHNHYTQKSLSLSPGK
TEST SUMMARY: SPR pH 7.4, antigen-Fc captured, Fab analyte
ASSAY ENDPOINT: koff (s⁻¹)
Quick note: give the figure in s⁻¹, leave out the unit.

BINDER	RESULT
68BLH (Fab, V domains shown, also called 20BLM Fab) VH: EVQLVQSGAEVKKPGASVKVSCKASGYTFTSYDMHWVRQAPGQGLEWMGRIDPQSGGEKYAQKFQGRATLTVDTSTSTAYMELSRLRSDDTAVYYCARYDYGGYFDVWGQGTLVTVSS VL: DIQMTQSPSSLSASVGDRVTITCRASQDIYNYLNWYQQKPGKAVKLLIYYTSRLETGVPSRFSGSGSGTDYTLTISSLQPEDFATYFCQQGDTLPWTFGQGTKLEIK	0.00331

Query :: Name the recorded koff for 67BLH (Fab, V domains shown, also called 19BLM Fab) VH: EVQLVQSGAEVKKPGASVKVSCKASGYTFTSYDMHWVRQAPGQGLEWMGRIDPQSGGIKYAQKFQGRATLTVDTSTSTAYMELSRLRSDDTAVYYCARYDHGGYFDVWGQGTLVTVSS VL: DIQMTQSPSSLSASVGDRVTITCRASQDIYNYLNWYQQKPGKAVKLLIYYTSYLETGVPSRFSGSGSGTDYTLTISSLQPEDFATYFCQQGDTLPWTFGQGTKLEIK .
Result :: 0.00476

Query :: Name the recorded koff for 66BLH (Fab, V domains shown, also called 18BLM Fab) VH: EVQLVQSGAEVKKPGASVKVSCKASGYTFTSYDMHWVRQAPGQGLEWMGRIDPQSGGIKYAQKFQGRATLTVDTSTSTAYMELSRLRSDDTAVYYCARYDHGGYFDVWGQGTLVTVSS VL: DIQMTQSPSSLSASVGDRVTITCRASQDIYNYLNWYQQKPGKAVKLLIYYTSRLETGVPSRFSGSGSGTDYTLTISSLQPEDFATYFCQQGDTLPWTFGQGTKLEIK .
Result :: 0.00764

src = patent US20230272056A1
